// provenance: ChEMBL document CHEMBL4219032

Measured pIC50, listed per entry.
molecular target: UniProt:P23977; assay: Inhibition of rat brain DAT assessed as reduction of [3H]-DA re-uptake preincubated for 30 mins followed by [3H]-DA addition measured after 5 mins by scintillation counting
Sequence (P23977 whole entry): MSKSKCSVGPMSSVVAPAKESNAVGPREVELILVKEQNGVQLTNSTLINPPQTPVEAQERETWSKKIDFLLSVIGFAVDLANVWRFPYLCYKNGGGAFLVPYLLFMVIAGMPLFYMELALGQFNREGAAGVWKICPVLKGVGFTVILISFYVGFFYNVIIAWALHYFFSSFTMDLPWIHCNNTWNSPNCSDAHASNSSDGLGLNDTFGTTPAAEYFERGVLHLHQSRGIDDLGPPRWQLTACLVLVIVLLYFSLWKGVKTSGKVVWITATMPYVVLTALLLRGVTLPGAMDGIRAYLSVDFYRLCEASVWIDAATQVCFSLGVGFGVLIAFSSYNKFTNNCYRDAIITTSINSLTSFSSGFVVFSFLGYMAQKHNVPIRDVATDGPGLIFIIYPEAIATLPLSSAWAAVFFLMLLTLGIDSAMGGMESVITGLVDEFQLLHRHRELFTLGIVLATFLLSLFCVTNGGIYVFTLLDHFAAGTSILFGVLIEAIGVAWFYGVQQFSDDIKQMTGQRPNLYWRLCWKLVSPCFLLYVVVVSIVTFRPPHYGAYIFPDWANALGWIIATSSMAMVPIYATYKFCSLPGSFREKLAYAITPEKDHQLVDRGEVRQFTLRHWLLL
Give only the number. pIC50 is defined as minus log10 of concentration in molar units.

COC(=O)[C@H]1CN(C)CC[C@@H]1c1ccc(Cl)cc1	6.63

Now look at this entry.
Request: For CC1CCCN(C(=O)CSC[C@H]2CN(C)CC[C@@H]2c2ccc(Cl)cc2)C1 (some centres not stated) , what is its reported pIC50?
Response: 6.92

* * *

assay: Half life in human at 0.025 to 5 mg, po by LC-MS/MS analysis; format: ADME, organism-based; details: in vivo
quantity measured: half-life

Request: Given the entry CN1Cc2cc(-c3ccc(N)nn3)ccc2[C@H](c2ccc3ccccc3c2)C1 , report its measured half-life.
Response: 34 to 57 h

* * *

test: Tmax in human at 9 mg; assay type: ADME, organism-based; details: in vivo
quantity measured: Tmax (h)
Please give a number only; it is taken to be in h.

Request: I am curious: what Tmax value has been reported for CCOC[C@H]1[C@@H](c2ccc(Cl)c(Cl)c2)C[C@@H]2CC[C@H]1N2C ?
Response: 6

* * *

molecular target: Sodium-dependent noradrenaline transporter (Homo sapiens)
Sequence (P23975 whole entry): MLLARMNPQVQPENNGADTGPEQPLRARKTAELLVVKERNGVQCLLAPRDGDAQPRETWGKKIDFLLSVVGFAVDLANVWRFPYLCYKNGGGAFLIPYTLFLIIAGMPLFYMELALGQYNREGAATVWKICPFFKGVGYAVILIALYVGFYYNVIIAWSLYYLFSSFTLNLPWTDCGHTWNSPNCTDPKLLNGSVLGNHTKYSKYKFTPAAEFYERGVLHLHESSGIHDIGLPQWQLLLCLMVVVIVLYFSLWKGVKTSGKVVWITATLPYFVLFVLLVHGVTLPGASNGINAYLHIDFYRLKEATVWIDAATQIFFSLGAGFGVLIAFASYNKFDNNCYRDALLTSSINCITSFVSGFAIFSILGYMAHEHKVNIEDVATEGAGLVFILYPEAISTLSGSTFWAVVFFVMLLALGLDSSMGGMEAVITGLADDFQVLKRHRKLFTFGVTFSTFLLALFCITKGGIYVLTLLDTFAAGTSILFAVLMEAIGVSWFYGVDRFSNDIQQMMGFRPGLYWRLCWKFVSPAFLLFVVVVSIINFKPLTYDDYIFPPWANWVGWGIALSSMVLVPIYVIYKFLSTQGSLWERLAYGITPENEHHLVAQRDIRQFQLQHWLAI
quantity measured: Ki
Output should be the measured figure followed by the unit it is expressed in.

C#Cc1ccc(C2CN3CCCC3c3ccccc32)cc1 (racemic)	16.6 nM

Request: Hello, I am looking for reported Ki with Sodium-dependent noradrenaline transporter (Homo sapiens) for C#Cc1ccc([C@H]2CN3CCC[C@H]3c3ccccc32)cc1 . Could you help?
Response: 227 nM

Request: Query for Sodium-dependent noradrenaline transporter (Homo sapiens): what Ki does the record show for C#Cc1ccc([C@@H]2CN3CCC[C@@H]3c3ccccc32)cc1 ?
Response: 4.1 nM

Request: Form field: Ki recorded for CN1Cc2c(N)cccc2C(c2ccc(Cl)c(Cl)c2)C1 (centres undefined) with Sodium-dependent noradrenaline transporter (Homo sapiens) (enter value)
Response: 8.8 nM

* * *

molecular target: Norepinephrine transporter (Rattus norvegicus, UniProt Q9WTR4); assay: Inhibition of rat brain NET assessed as reduction of [3H]-NE re-uptake preincubated for 30 mins followed by [3H]-NE addition measured after 5 mins by scintillation counting
Sequence (Q9WTR4 whole entry): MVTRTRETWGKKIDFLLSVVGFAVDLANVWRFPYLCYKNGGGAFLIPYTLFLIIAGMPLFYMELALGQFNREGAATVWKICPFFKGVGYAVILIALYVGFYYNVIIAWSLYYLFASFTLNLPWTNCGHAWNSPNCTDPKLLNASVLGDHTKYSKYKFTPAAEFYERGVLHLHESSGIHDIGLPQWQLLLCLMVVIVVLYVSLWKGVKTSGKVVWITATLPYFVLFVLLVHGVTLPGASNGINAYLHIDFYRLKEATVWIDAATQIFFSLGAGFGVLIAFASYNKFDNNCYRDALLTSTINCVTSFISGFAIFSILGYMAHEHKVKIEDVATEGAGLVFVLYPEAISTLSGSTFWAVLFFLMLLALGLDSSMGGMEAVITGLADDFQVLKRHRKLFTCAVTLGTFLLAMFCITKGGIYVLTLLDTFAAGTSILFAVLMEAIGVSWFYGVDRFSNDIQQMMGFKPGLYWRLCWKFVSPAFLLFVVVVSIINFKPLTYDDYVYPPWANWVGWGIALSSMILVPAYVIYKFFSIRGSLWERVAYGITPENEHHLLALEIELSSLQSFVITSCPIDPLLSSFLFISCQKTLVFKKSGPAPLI
Measured IC50 values are reported for all entries that follow.
Give the value in nM but do not write nM after it.

CC1CCCN(C(=O)CSC[C@H]2CN(C)CC[C@@H]2c2ccc(Cl)cc2)C1 (some centres not stated)	84

Attention now turns to another entry.
Request: What value of measured IC50 is listed for COC(=O)[C@H]1CN(C)CC[C@@H]1c1ccc(Cl)cc1 ?
Response: 252

* * *

experiment: Tmax in human at 0.025 to 5 mg, po by LC-MS/MS analysis; type: ADME, organism-based; conditions: in vivo
quantity measured: Tmax

Request: Entry CN1Cc2cc(-c3ccc(N)nn3)ccc2[C@H](c2ccc3ccccc3c2)C1 has what Tmax?
Response: 5 to 7.2 h

* * *

assay: Ratio of drug level in human brain to plasma at 30 mg administered qd for 3 days followed by 60 mg administration at qd for next 11 days measured on day 14 post last dose by LC-MS/MS analysis; type: ADME; settings: read-out: BPR
Measured Kp at 14 day accompanies every entry in the list below.
I'd appreciate a reply containing only the number, no unit.

CN(C)C[C@]1(c2ccc(Cl)c(Cl)c2)CC[C@@](C)(O)CC1	0.22

// below: Kp at 14 day requested for another molecule
Request: Reported Kp at 14 day for CNC[C@]1(c2ccc(Cl)c(Cl)c2)CC[C@](C)(O)CC1 : what is it?
Response: 0.46

* * *

molecular target: Sodium-dependent serotonin transporter (Homo sapiens); experiment: Inhibition of SERT (unknown origin)-mediated uptake
Sequence (P31645 whole entry): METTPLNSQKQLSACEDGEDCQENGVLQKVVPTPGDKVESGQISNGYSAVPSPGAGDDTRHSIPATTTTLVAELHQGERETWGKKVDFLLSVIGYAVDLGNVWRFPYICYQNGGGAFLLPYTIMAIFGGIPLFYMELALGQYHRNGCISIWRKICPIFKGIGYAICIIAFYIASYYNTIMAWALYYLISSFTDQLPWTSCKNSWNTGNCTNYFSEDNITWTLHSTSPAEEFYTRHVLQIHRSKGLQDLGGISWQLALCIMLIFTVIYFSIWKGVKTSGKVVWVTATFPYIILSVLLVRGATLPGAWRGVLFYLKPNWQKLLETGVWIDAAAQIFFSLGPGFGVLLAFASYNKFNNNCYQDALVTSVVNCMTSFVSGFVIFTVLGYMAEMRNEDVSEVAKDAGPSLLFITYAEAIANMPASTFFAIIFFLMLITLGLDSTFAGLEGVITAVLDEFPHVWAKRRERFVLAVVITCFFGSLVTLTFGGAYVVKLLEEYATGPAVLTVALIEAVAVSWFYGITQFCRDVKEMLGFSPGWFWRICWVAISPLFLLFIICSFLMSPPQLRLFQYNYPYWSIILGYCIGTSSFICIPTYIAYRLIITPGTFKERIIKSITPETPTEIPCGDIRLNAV
quantity measured: IC50 (nM)
Note: unit nM is implicit; provide only the numeric part.

Request: Test system Sodium-dependent serotonin transporter (Homo sapiens); read-out IC50; what value for CN(C)C[C@]1(c2ccc3ccccc3c2)CC[C@](C)(O)CC1 ?
Response: 7

* * *

experiment: Elimination half life in human at 8 to 36 mg by LC-MS/MS analysis; format: ADME, organism-based; conditions: in vivo, read-out: beta t1/2
quantity measured: half-life

Request: // query half-life value for entry N[C@H]1CC[C@H](c2ccc(Cl)c(Cl)c2)c2ccccc21
Response: 44 to 77 h

* * *

molecular target: Sodium-dependent dopamine transporter (Homo sapiens); test: Binding affinity to human DAT
Each entry below carries its reported log10 of Ki.
A value of 2 here means Ki of 100 in µM, since values are log10.

COC[C@H]1CN[C@H]2CC[C@]1(c1ccc(Cl)c(Cl)c1)C2	-2.82
Clc1ccc([C@@H]2CCNC[C@@]23CCOC3)cc1Cl	-1.40
COC[C@@H]1CN[C@@H]2CC[C@@]1(c1ccc(Cl)c(Cl)c1)C2	-1.10
COC[C@@H]1CN[C@H]2CC[C@]1(c1ccc(Cl)c(Cl)c1)C2	-2.24
Clc1ccc(C2CCNCC23CCOCC3)cc1Cl (stereo in doubt; 171)	-1.50
Clc1ccc([C@@H]2CCN[C@@H]3CCOC[C@@H]32)cc1Cl	-1.40
Clc1ccc(C2CCNCC23COC3)cc1Cl (stereo not given)	-0.80
Clc1ccc(C2CCNCC23CCOCC3)cc1Cl (stereo in doubt; 172)	-1.90
Clc1ccc(C2CCNCC23CCOCC3)cc1Cl (racemic)	-1.70

// next entry
Request: # get_value(readout= log10 of Ki, system= Sodium-dependent dopamine transporter (Homo sapiens)) for COC[C@H]1CN[C@@H]2CC[C@@]1(c1ccc(Cl)c(Cl)c1)C2
Response: -2.30

* * *

// values below are reported IC50
target: Sodium-dependent dopamine transporter (Homo sapiens); assay: Inhibition of DAT (unknown origin)-mediated uptake
Entry format: amount then unit.

// known answers, use as guide
CNC[C@]1(c2ccc(Cl)c(Cl)c2)CC[C@](C)(O)CC1	71 nM
C[C@]1(O)CC[C@](CN)(c2ccc(Cl)c(Cl)c2)CC1	518 nM
CN(C)C[C@]1(c2ccc(Cl)c(Cl)c2)CC[C@@](C)(O)CC1	41 nM
C[C@]1(O)CC[C@@](CN)(c2ccc(Cl)c(Cl)c2)CC1	2600 nM

Let us move to another entry and its IC50.
Request: Quick check: IC50 of CN(C)C[C@]1(c2ccc3ccccc3c2)CC[C@](C)(O)CC1 ?
Response: 167 nM

* * *

Listing of recorded pIC50 by entry.
biological target: Sodium-dependent serotonin transporter (Rattus norvegicus); experiment: Inhibition of rat brain SERT assessed as reduction of [3H]5-HT re-uptake preincubated for 30 mins followed by [3H]5-HT addition measured after 5 mins by scintillation counting
Sequence (P31652 whole entry): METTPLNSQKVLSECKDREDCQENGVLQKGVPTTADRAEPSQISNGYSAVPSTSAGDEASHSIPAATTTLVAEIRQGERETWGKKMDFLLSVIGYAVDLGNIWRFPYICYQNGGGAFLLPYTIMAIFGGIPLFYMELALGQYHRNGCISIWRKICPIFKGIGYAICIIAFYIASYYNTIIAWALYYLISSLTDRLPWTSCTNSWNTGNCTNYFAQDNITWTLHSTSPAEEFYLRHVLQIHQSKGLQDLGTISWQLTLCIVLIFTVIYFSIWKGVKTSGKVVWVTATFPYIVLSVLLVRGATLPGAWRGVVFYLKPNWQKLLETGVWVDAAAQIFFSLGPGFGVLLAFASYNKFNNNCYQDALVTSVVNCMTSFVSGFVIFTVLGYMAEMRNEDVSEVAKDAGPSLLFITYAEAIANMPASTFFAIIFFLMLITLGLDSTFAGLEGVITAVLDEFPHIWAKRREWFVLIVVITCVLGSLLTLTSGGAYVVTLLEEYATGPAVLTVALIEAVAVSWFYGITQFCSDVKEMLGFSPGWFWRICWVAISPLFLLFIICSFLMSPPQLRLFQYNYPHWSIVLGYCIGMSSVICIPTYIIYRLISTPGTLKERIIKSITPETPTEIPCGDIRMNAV
pIC50 here: minus log base 10 of the concentration, concentration in moles per litre.

COC(=O)[C@H]1CN(C)CC[C@@H]1c1ccc(Cl)cc1	5.07

Request: Can you share its pIC50? I mean this compound: CC1CCCN(C(=O)CSC[C@H]2CN(C)CC[C@@H]2c2ccc(Cl)cc2)C1 (some centres not stated)
Response: 7.82

* * *

target: Sodium-dependent dopamine transporter (Homo sapiens, UniProt Q01959); test: Inhibition of DAT (unknown origin) assessed as reduction of [3H]-DA re-uptake
Sequence (Q01959 whole entry): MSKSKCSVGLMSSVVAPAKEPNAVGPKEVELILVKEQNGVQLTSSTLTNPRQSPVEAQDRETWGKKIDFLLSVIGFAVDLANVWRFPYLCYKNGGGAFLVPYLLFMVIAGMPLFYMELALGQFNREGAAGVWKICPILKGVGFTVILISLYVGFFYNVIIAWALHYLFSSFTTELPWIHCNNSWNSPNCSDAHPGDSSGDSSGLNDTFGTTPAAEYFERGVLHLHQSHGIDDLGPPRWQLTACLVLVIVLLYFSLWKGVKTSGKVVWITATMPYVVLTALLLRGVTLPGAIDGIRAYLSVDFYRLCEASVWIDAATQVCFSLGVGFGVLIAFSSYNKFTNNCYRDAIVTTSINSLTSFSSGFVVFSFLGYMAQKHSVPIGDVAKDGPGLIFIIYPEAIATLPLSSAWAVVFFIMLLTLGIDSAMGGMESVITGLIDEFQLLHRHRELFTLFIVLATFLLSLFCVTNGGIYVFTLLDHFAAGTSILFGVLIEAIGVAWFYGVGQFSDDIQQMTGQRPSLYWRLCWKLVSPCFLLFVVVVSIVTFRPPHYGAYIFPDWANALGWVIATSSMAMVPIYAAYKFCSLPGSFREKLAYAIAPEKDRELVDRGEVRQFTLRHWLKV
quantity measured: IC50 (nM)
Give the number; nM is assumed, so skip it.

Request: Please look up its IC50: CNC[C@H]1C2CCC(C2)[C@@H]1c1ccc2ccccc2c1 (stereo partly specified)
Response: 96

* * *

molecular target: Sodium-dependent dopamine transporter (Homo sapiens)
quantity measured: Kd (µM)
Response body: numeric value in µM, unit text excluded.

Request: Request body: readout Kd, system Sodium-dependent dopamine transporter (Homo sapiens), query CNC[C@@H](c1ccc2ccccc2c1)[C@@H](O)c1ccccc1 . Return the value.
Response: 0.2

* * *

molecular target: Sodium-dependent serotonin transporter (Homo sapiens); assay: Inhibition of human SERT expressed in CHO cells assessed as reduction of [3H]-5-HT re-uptake preincubated for 10 mins followed by [3H]-5-HT addition measured after 10 mins by liquid scintillation counting; type: cell-based
quantity measured: IC50
Put your answer as a value accompanied by its unit after it.

Request: Param readout = IC50; param system = Sodium-dependent serotonin transporter (Homo sapiens); param query = CN(C)CC(c1ccc(OC(=O)c2ccccc2)cc1)C1(O)CCCCC1 (stereo unspecified) ; response: value
Response: 105 nM

* * *

biological target: Sodium-dependent dopamine transporter (Homo sapiens); assay: Inhibition of human DAT expressed in HEK cells assessed as reduction of [3H]-DA uptake preincubated for 10 mins followed by […] measured after 10 mins by scintillation counting method; assay type: cell-based
quantity measured: IC50 (nM)
The response must be a number in nM with no trailing unit.

Request: Entry under review: c1ccc2cc([C@]34CNCC3C4)ccc2c1 (stereo partly specified) . Reported IC50?
Response: 38

* * *

Entries and their measured pKi follow.
target: UniProtKB P23975; assay: Binding affinity to human NET
# reply with the number alone; pKi is -log10 of concentration in mol/L

Answered cases to consult:
Clc1ccc([C@@H]2CCNC[C@@]23CCOC3)cc1Cl	7.10
COC[C@H]1CN[C@@H]2CC[C@@]1(c1ccc(Cl)c(Cl)c1)C2	8.50
Clc1ccc(C2CCNCC23CCOCC3)cc1Cl (stereo in doubt; 171)	7.20
Clc1ccc(C2CCNCC23COC3)cc1Cl (stereo unspecified)	6.80
COC[C@@H]1CN[C@H]2CC[C@]1(c1ccc(Cl)c(Cl)c1)C2	8.85

// next item, pKi requested
Request: Can you share its pKi? I mean this molecule: COC[C@@H]1CN[C@@H]2CC[C@@]1(c1ccc(Cl)c(Cl)c1)C2
Response: 8.20
